target: Histone acetyltransferase p300 (Homo sapiens, UniProt Q09472); experiment: Inhibition of human p300 HAT domain (1195 to 1673 residues) at 10 uM using histone H3 peptide and acetyl-coA as substrates preincubated for 10 mins followed by substrate addition and measured after 30 mins by beckman scintillation counting analysis relative to control; conditions: time 40.0 min
Sequence (Q09472 whole entry, the tested form may be a part): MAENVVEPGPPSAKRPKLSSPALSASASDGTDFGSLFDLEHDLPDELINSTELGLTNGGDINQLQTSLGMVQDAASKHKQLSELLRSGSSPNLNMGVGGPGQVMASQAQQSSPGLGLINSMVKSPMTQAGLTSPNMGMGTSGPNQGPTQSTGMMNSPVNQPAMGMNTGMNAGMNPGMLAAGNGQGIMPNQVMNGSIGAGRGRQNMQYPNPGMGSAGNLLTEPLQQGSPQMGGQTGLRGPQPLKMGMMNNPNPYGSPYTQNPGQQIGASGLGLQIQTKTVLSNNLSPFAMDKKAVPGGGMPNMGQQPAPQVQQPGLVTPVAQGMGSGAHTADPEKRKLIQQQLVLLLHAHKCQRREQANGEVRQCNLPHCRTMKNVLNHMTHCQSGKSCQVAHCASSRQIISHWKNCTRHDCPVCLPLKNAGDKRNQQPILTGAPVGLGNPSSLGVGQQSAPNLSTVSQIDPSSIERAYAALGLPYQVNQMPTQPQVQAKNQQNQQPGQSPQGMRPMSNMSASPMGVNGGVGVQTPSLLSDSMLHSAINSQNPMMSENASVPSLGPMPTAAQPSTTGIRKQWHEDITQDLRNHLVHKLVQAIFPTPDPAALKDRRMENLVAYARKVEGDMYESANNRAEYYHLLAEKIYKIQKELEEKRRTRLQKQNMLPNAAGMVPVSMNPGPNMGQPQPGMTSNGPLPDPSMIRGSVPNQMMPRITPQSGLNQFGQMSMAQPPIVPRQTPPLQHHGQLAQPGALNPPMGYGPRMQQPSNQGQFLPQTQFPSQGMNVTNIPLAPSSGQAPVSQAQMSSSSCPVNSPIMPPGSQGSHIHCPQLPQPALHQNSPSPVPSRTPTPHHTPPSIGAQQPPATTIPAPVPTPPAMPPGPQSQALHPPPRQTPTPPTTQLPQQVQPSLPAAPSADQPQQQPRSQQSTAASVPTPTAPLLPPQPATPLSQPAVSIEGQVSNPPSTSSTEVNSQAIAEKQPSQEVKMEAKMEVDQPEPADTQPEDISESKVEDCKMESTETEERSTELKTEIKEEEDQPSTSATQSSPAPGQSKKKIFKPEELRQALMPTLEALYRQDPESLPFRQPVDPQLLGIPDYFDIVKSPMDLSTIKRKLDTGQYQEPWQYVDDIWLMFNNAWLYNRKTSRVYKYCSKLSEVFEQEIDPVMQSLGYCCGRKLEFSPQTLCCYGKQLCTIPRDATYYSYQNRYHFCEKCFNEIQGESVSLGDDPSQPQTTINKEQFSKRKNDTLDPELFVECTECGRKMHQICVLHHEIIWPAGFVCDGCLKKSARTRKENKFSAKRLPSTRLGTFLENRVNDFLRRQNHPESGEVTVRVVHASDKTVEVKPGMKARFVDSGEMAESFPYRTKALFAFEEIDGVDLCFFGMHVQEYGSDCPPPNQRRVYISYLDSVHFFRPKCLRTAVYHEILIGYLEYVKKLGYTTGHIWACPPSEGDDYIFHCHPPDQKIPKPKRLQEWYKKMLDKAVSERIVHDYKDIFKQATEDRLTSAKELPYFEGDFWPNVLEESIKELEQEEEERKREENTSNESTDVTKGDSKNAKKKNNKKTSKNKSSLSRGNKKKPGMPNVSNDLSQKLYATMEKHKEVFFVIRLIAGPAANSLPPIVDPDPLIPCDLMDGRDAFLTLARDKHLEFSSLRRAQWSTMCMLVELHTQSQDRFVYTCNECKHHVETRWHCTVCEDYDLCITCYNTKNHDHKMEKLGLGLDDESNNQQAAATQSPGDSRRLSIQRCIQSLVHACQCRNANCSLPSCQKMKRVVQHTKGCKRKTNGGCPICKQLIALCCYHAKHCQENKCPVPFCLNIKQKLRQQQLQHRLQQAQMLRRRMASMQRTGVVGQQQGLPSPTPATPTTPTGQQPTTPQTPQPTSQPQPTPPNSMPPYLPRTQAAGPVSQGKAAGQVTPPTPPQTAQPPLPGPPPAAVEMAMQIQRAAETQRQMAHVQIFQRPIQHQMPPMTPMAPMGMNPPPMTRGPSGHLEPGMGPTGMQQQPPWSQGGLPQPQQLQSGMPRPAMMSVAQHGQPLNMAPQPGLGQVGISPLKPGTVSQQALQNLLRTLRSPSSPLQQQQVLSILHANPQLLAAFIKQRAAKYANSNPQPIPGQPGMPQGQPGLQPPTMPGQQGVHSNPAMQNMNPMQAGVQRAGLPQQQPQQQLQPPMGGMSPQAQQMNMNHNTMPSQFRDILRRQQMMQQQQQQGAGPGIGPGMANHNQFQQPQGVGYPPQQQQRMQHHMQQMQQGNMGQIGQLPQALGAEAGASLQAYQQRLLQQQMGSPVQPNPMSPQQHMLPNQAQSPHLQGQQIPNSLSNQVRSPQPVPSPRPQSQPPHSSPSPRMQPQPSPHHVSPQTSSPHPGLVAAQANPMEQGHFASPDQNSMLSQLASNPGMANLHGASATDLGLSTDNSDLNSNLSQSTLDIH
Answer 0 if inhibition is under 40%, and 1 if it is 40% or more.

IN: Assess whether reported inhibition for O=C(O)c1cnc(-c2ccc(Br)cc2)c(-c2ccc(Br)cc2)n1 sits at 40% or higher.
OUT: 0

IN: Assess whether reported inhibition for FC(F)(F)c1ccc(-c2ncc(OCC3CCNCC3)nc2-c2ccc(C(F)(F)F)cc2)cc1 sits at 40% or higher.
OUT: 0

IN: Assess whether reported inhibition for Brc1ccc(-c2ncc(OCC3CCNCC3)nc2-c2ccc(Br)cc2)cc1 sits at 40% or higher.
OUT: 1

IN: Assess whether reported inhibition for COc1ccc(-c2ncc(OCC3CCNCC3)nc2-c2ccc(OC)cc2)cc1 sits at 40% or higher.
OUT: 0

IN: Assess whether reported inhibition for CCc1ccc(-c2ncc(OCC3CCNCC3)nc2-c2ccc(CC)cc2)cc1 sits at 40% or higher.
OUT: 1

IN: Assess whether reported inhibition for N#Cc1ccc(-c2ncc(OCC3CCNCC3)nc2-c2ccc(C#N)cc2)cc1 sits at 40% or higher.
OUT: 0

IN: Assess whether reported inhibition for CN(C)CCCOc1cnc(-c2ccc(Br)cc2)c(-c2ccc(Br)cc2)n1 sits at 40% or higher.
OUT: 0

IN: Assess whether reported inhibition for CC(=O)NCCOc1cnc(-c2ccc(Br)cc2)c(-c2ccc(Br)cc2)n1 sits at 40% or higher.
OUT: 0

IN: Assess whether reported inhibition for NCCOc1cnc(-c2ccc(Br)cc2)c(-c2ccc(Br)cc2)n1 sits at 40% or higher.
OUT: 0

IN: Assess whether reported inhibition for Brc1ccc(-c2ncc(OCC3CCNCC3)nc2-c2ccc(Br)c(Br)c2)cc1Br sits at 40% or higher.
OUT: 1

IN: Assess whether reported inhibition for OCc1ccc(-c2ncc(OCC3CCNCC3)nc2-c2ccc(CO)cc2)cc1 sits at 40% or higher.
OUT: 1

IN: Assess whether reported inhibition for N#Cc1ccc(-c2ncc(OCC3CCNCC3)nc2-c2ccc(Br)cc2)cc1 sits at 40% or higher.
OUT: 0

IN: Assess whether reported inhibition for CNCCOc1cnc(-c2ccc(Br)cc2)c(-c2ccc(Br)cc2)n1 sits at 40% or higher.
OUT: 0

IN: Assess whether reported inhibition for N#Cc1ccc(-c2nc(OCC3CCNCC3)cnc2-c2ccc(Br)cc2)cc1 sits at 40% or higher.
OUT: 0

IN: Assess whether reported inhibition for c1ccc(-c2ccc(-c3ncc(OCC4CCNCC4)nc3-c3ccc(-c4ccccn4)cc3)cc2)nc1 sits at 40% or higher.
OUT: 0

###

target: UniProt Q09472; assay: Inhibition of biotinylated histone H4 peptide binding to His-tagged human p300 HAT domain (1195 to 1673 residues) assessed as reduction in alpha signal incubated for 1 hr by amplified luminescent proximity homogeneous assay
Consider the following molecules; for each one, report its pIC50.
Please express pIC50 as -log10 of the molar concentration.

IN: What measured pIC50 goes with c1cc(-c2ccc(-c3ncc(OCC4CCNCC4)nc3-c3ccc(-c4ccoc4)cc3)cc2)co1 ?
OUT: 5.14

IN: What measured pIC50 goes with Brc1ccc(-c2ncc(OCC3CCNCC3)nc2-c2ccc(Br)cc2)cc1 ?
OUT: 4.57
